- study system: FGFR2 over-expressed on CHO cells (CHO-FGFR2) and on 32D cells (32D-FGFR2) (UniProt P21803)
- procedure summary: competition of unlabeled protein with 125I-FGF4 (Gly79-Leu206) for CHO-FGFR2 cells, +heparin
reported metric: IC50 mutant/IC50 wild-type (ratio (IC50 mutant/IC50 wild-type))

Would you please look over these solved cases?
N-terminal truncated wild-type FGF4 (Gly79-Leu206) (ligand) GIKRLRRLYCNVGIGFHLQALPDGRIGGAHADTRDSLLELSPVERGVVSIFGVASRFFVAMSSKGKLYGSPFFTDECTFKEILLPNNYNAYESYKYPGMFIALGKNGKTKKGNRVSPTMKVTHFLPRL ... 1
FGF4 (Gly79-Leu206) F151A (ligand) GIKRLRRLYCNVGIGFHLQALPDGRIGGAHADTRDSLLELSPVERGVVSIFGVASRFFVAMSSKGKLYGSPFATDECTFKEILLPNNYNAYESYKYPGMFIALGKNGKTKKGNRVSPTMKVTHFLPRL ... 2.5
FGF4 (Gly79-Leu206) E117A (ligand) GIKRLRRLYCNVGIGFHLQALPDGRIGGAHADTRDSLLALSPVERGVVSIFGVASRFFVAMSSKGKLYGSPFFTDECTFKEILLPNNYNAYESYKYPGMFIALGKNGKTKKGNRVSPTMKVTHFLPRL ... 7

a = FGF4 (Gly79-Leu206) E159A (ligand) GIKRLRRLYCNVGIGFHLQALPDGRIGGAHADTRDSLLELSPVERGVVSIFGVASRFFVAMSSKGKLYGSPFFTDECTFKAILLPNNYNAYESYKYPGMFIALGKNGKTKKGNRVSPTMKVTHFLPRL
b = FGF4 (Gly79-Leu206) R205A (ligand) GIKRLRRLYCNVGIGFHLQALPDGRIGGAHADTRDSLLELSPVERGVVSIFGVASRFFVAMSSKGKLYGSPFFTDECTFKEILLPNNYNAYESYKYPGMFIALGKNGKTKKGNRVSPTMKVTHFLPAL
Data request: Returns: the argument ( a or b ) having the larger IC50 mutant/IC50 wild-type (ratio (IC50 mutant/IC50 wild-type)). Return value: the label identifying the chosen record.
Data returned: a
(a: 5, b: 2.5)

Sourced from patent US7294706
